target: Maternal embryonic leucine zipper kinase (Homo sapiens); further: in the data inactive means no Kd found up to 30 µM
Sequence (Q14680 whole entry): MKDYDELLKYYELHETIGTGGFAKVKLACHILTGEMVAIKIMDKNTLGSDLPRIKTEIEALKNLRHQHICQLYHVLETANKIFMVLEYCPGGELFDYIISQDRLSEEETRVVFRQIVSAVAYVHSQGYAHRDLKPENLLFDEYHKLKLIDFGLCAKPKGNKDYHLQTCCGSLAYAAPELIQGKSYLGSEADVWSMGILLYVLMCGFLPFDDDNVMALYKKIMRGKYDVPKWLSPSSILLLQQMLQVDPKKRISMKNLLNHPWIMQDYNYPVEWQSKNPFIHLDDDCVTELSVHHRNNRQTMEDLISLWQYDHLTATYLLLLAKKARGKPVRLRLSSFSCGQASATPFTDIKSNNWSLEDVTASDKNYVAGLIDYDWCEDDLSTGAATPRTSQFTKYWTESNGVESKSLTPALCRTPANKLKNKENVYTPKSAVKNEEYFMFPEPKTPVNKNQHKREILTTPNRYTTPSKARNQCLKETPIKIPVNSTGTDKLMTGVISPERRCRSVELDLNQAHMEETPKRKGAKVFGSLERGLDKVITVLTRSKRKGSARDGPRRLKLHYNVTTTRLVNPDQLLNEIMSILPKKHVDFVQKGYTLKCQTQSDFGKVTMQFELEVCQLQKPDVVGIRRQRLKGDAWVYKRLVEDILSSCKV
Active and inactive are the calls of the source.
Write down one outcome, taken from active, inactive

INSERT INTO results (compound, classassignment) VALUES
  ('CC(C)Nc1cc(-c2c[nH]c(C(=O)N[C@H](CO)c3cccc(Cl)c3)c2)c(Cl)cn1 [ULIXERTINIB]', 'inactive');

Q. Entry Cc1ccc(-n2nc(C(C)(C)C)cc2NC(=O)NCc2cc(F)ccc2Oc2ccc3c(cnn3CCO)c2)cc1 [PEXMETINIB] : call = ?
A. inactive

Q. Outcome logged for CNC(=O)c1cc(Oc2ccc(NC(=O)Nc3ccc(Cl)c(C(F)(F)F)c3)c(F)c2)ccn1 [REGORAFENIB] in this assay:
A. inactive

Q. Entry CCCS(=O)(=O)Nc1ccc(F)c(C(=O)c2c[nH]c3ncc(-c4ccc(Cl)cc4)cc23)c1F [VEMURAFENIB] : call = ?
A. inactive

Q. Called result for N[C@@H]1CCCN(c2c(/C=C3\SC(=O)NC3=O)cccc2-c2ccccc2)C1
A. inactive

Q. For this compound, state the assay outcome: O=C(c1ccc(F)c(F)c1Nc1ccc(I)cc1F)N1CC(O)([C@@H]2CCCCN2)C1 [COBIMETINIB]
A. inactive

Q. # fetch the recorded call for C=CC(=O)N1CCC(Oc2cc3c(Nc4ccc(Cl)c(Cl)c4F)ncnc3cc2OC)CC1 [POZIOTINIB] here
A. inactive

Q. Write down the call the test reported for this compound. Item: CNC(=O)CN1CCC(Oc2cc3c(Nc4cccc(Cl)c4F)ncnc3cc2OC)CC1 [SAPITINIB]
A. inactive

Q. Test call, this compound: CN1CCC(CNc2ccc3ncc(-c4cccc(OC(F)(F)F)c4)n3n2)CC1 [SGI-1776]
A. inactive

Q. For this compound, state the assay outcome: COC(=O)[C@@]1(O)C[C@H]2O[C@]1(C)n1c3ccccc3c3c4c(c5c6ccccc6n2c5c31)C(=O)NC4 [K-252A]
A. active

----------
target: Serine/threonine-protein kinase ULK3 (Homo sapiens); further: in the data inactive means no Kd found up to 30 µM
Sequence (Q6PHR2 whole entry): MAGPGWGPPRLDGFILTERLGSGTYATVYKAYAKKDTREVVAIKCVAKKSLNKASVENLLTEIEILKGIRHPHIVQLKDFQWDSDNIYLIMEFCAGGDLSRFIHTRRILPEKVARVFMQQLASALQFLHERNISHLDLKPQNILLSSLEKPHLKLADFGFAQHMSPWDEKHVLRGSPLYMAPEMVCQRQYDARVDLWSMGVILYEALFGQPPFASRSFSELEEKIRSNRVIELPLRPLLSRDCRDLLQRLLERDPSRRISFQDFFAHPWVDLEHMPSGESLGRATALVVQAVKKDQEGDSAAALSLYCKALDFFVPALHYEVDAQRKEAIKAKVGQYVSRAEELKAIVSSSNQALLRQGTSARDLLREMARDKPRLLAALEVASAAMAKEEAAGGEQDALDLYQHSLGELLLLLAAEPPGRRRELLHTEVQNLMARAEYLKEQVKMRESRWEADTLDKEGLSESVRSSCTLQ
Calls of active or inactive are those of the source.
Give your call using only these classes: label 1 for active, label 0 for inactive

INSERT INTO results (compound, systemname, classassignment) VALUES
  ('CNC(=O)c1ccc(-c2cnc3ncc(Cc4ccc5ncccc5c4)n3n2)cc1F', 'Serine/threonine-protein kinase ULK3 (Homo sapiens)', 'label 0'),
  ('CC(C)Nc1cc(-c2c[nH]c(C(=O)N[C@H](CO)c3cccc(Cl)c3)c2)c(Cl)cn1', 'Serine/threonine-protein kinase ULK3 (Homo sapiens)', 'label 0'),
  ('O=C(Nc1cccc(Cl)c1)Nc1ncc(CCNc2ncnc3ccsc23)s1', 'Serine/threonine-protein kinase ULK3 (Homo sapiens)', 'label 0'),
  ('COc1cc(CCc2cc(NC(=O)c3ccc(N4C[C@@H](C)N[C@@H](C)C4)cc3)n[nH]2)cc(OC)c1', 'Serine/threonine-protein kinase ULK3 (Homo sapiens)', 'label 0');

Q. Kindly provide the recorded test outcome for the following compound: Cc1ccc(-n2nc(C(C)(C)C)cc2NC(=O)NCc2cc(F)ccc2Oc2ccc3c(cnn3CCO)c2)cc1
A. label 0

Q. GET /call?item= COc1cc2nccc(Oc3ccc(NC(=O)Nc4cc(C)on4)c(Cl)c3)c2cc1OC returns the recorded outcome of this test.
A. label 0

Q. So what was the verdict on CNC(=O)c1cc(Oc2ccc(NC(=O)Nc3ccc(Cl)c(C(F)(F)F)c3)c(F)c2)ccn1 in this test?
A. label 0

Q. Lab log entry: CCc1cnn2c(NCc3ccc[n+]([O-])c3)cc(N3CCCC[C@H]3CCO)nc12 — outcome as called in the assay?
A. label 0

----------
Target: Mitogen-activated protein kinase kinase kinase kinase 2 (Homo sapiens); further: in the data inactive means no Kd found up to 30 µM
Sequence (Q12851 whole entry): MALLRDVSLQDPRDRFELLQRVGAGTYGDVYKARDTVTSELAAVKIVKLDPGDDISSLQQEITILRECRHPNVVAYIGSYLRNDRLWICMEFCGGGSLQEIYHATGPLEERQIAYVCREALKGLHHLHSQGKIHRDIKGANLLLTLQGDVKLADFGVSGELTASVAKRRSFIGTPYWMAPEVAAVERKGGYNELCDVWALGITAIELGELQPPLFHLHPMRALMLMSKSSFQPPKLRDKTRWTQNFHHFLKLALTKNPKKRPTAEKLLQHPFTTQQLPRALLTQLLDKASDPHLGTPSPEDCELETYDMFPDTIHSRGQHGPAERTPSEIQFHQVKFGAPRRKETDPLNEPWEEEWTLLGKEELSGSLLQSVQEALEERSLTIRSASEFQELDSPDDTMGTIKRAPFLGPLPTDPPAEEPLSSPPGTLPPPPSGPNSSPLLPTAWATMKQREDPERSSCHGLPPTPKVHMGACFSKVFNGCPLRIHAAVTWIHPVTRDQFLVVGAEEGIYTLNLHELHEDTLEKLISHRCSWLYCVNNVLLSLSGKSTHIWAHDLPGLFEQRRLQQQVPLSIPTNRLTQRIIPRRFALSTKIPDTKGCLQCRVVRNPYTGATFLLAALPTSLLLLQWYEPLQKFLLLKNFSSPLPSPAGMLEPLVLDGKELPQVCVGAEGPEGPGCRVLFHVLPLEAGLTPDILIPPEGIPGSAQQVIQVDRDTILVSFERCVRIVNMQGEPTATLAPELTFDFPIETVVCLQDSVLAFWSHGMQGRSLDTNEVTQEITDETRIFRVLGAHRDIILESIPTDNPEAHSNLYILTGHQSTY
The source made the active and inactive calls.
# output must be one of True for active, False for inactive

INSERT INTO assay_data (compound, classassignment) VALUES
  ('CC(C)Nc1cc(-c2c[nH]c(C(=O)N[C@H](CO)c3cccc(Cl)c3)c2)c(Cl)cn1', 'False'),
  ('CN(C)C(=O)c1cc2cnc(Nc3ccc(N4CCNCC4)cn3)nc2n1C1CCCC1', 'False'),
  ('N[C@@H]1CCCN(c2c(/C=C3\SC(=O)NC3=O)cccc2-c2ccccc2)C1', 'False'),
  ('Cn1cc(-c2ccc(F)c(C(F)(F)F)c2)nc1C1CCN(c2ncnc3[nH]ncc23)CC1', 'False'),
  ('Cc1cc(-c2cc(O)ccc2Cl)cc2nnc(Nc3ccc(OCCN4CCCC4)cc3)nc12', 'False'),
  ('COC(=O)[C@@]1(O)C[C@H]2O[C@]1(C)n1c3ccccc3c3c4c(c5c6ccccc6n2c5c31)C(=O)NC4 [K-252A]', 'True');

Q. How was C[C@@H](Nc1cc(F)cc(F)c1)c1cc(C(=O)N(C)C)cc2c(=O)cc(N3CCOCC3)oc12 classified in this test?
A. False

Q. Returns: the outcome recorded for CCN1CCN(Cc2ccc(-c3cc4c(N[C@H](C)c5ccccc5)ncnc4[nH]3)cc2)CC1 in this assay.
A. True

----------
target: Proto-oncogene tyrosine-protein kinase receptor Ret (Homo sapiens, UniProt P07949); further: in the data inactive means no Kd found up to 30 µM
Sequence (P07949 whole entry): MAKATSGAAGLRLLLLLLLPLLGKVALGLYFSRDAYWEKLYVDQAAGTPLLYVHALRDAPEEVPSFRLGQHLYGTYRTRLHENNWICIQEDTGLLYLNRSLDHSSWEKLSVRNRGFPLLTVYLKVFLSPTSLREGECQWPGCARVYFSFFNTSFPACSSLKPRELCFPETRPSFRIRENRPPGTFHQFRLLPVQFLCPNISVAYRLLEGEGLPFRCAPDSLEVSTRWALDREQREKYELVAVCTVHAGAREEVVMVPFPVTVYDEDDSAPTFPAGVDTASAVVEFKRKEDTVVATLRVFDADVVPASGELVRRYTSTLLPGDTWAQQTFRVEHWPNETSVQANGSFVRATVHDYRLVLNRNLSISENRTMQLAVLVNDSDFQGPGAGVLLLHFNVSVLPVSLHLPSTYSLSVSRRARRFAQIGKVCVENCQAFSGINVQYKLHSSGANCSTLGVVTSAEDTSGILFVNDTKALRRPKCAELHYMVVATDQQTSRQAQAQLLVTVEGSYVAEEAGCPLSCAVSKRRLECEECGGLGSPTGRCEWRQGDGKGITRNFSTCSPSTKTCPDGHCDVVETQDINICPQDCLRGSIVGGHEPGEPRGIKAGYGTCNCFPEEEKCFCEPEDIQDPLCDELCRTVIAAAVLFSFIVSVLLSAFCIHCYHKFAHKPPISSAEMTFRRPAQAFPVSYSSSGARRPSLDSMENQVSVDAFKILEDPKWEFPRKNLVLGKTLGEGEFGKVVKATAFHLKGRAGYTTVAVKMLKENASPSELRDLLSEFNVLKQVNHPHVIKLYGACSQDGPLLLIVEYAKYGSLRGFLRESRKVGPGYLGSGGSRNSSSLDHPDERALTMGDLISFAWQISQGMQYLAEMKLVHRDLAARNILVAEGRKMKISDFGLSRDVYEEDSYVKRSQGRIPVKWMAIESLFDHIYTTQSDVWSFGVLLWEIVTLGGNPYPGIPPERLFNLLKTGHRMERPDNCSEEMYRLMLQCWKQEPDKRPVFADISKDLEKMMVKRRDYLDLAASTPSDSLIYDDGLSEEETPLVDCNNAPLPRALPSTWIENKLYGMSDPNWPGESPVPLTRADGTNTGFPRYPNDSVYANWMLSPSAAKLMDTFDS
Activity calls are given as the source filed them.
Form field: Kd (one value per entry).

INSERT INTO measurements (smilesstructure, measured) VALUES
  ('CC(C)Nc1cc(-c2c[nH]c(C(=O)N[C@H](CO)c3cccc(Cl)c3)c2)c(Cl)cn1', '> 30 µM (inactive)'),
  ('N[C@@H]1CCCN(c2c(/C=C3\SC(=O)NC3=O)cccc2-c2ccccc2)C1', '> 30 µM (inactive)');

Lab note: next compound to report on.
Q. Name the value of Kd reported for CO[C@H]1C[C@@H]2CC[C@@H](C)[C@@](O)(O2)C(=O)C(=O)N2CCCC[C@H]2C(=O)O[C@H]([C@H](C)C[C@@H]2CC[C@@H](OCCO)[C@H](OC)C2)CC(=O)[C@H](C)/C=C(\C)[C@@H](O)[C@@H](OC)C(=O)[C@H](C)C[C@H](C)/C=C/C=C/C=C/1C when tested on Proto-oncogene tyrosine-protein kinase receptor Ret (Homo sapiens, UniProt P07949). Further: in the data inactive means no Kd found up to 30 µM.
A. > 30 µM (inactive)

----------
target: UniProt:P11274
Sequence (P11274 whole entry): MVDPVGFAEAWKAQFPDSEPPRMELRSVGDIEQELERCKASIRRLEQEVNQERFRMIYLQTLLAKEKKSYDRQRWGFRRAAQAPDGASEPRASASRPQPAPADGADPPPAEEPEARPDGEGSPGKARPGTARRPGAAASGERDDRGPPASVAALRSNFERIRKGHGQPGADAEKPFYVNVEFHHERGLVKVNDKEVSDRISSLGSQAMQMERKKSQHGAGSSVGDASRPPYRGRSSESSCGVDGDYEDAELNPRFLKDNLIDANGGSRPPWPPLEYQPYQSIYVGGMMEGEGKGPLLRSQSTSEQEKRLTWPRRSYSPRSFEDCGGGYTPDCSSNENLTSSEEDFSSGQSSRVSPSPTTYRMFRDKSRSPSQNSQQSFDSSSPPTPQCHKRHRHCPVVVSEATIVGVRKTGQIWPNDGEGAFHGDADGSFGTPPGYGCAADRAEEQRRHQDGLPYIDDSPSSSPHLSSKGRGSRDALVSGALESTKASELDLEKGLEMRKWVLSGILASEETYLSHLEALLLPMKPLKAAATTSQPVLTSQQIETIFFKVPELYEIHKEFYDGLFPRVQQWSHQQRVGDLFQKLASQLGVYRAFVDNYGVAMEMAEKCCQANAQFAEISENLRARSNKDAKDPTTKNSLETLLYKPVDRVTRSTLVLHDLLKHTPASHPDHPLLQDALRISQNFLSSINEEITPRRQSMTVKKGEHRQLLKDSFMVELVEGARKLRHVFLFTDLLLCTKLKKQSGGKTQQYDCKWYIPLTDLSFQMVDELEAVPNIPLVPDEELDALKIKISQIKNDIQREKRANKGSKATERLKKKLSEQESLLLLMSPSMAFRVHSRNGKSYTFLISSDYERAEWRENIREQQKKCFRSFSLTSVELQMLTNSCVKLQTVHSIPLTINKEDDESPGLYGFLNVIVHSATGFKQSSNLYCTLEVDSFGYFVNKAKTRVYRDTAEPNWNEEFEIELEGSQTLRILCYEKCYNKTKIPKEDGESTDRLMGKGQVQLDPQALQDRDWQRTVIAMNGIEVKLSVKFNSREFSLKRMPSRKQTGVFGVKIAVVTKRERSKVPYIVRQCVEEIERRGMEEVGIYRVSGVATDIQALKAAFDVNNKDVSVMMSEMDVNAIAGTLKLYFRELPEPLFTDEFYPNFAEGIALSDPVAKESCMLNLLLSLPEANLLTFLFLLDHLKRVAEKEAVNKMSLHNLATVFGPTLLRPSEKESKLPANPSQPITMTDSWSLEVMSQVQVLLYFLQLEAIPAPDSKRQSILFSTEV
Activity calls are given as the source filed them.
Just give me one of these, please: 1 (yes) for active, 0 (no) for inactive

INSERT INTO measurements (compound, classassignment) VALUES
  ('CNC(=O)c1ccc(-c2cnc3ncc(Cc4ccc5ncccc5c4)n3n2)cc1F [CAPMATINIB]', '0 (no)');

Q. Any idea what this test logged for CC[C@@H]1C(=O)N(C)c2cnc(Nc3ccc(C(=O)N[C@H]4CC[C@H](N5CCN(CC6CC6)CC5)CC4)cc3OC)nc2N1C(C)C [VOLASERTIB] ?
A. 0 (no)

Q. Please let me know the test result on file for CNC(=O)c1ccc(C)c(-n2c(C)cc(OCc3ccc(F)cc3F)c(Br)c2=O)c1 [PH-797804] .
A. 0 (no)

Q. Recorded test call requested for COC(=O)N[C@@H](C)CNc1nccc(-c2cn(C(C)C)nc2-c2cc(Cl)cc(NS(C)(=O)=O)c2F)n1 [ENCORAFENIB]
A. 0 (no)

Q. For this compound, state the assay outcome: C[C@@H](Nc1cc(F)cc(F)c1)c1cc(C(=O)N(C)C)cc2c(=O)cc(N3CCOCC3)oc12 [AZD-8186]
A. 0 (no)

Q. Recorded call for COc1cc2nccc(Oc3ccc(NC(=O)NC4CC4)c(Cl)c3)c2cc1C(N)=O [LENVATINIB] ?
A. 1 (yes)

Q. Recorded call for O=C(Nc1ccc(-c2ccnc(Nc3ccc(N4CCOCC4)cc3)n2)cc1)C1CCCN1 (stereo not drawn) [XL-019] ?
A. 0 (no)

Q. Please indicate how the test categorized Cn1cc(-c2ccc(F)c(C(F)(F)F)c2)nc1C1CCN(c2ncnc3[nH]ncc23)CC1 [LY-2584702] .
A. 0 (no)
